The origin of these recorded values is paper PMC11879280.

tested on: K. pneumoniae JIE2709; details: K. pneumoniae JIE2709; CAMHB, 37°C, 16–20 h
Quick reference: MIC of antibiotics of the listed items.

COMPOUND	TGT	MIC of antibiotics
CC(C)(O/N=C(\C(=O)N[C@@H]1C(=O)N2C(C(=O)[O-])=C(C[n+]3ccccc3)CS[C@H]12)c1csc(N)n1)C(=O)O [Cefaz, ceftazidime, reference compound]	K. pneumoniae JIE2709	32 µg/mL
CO/N=C(\C(=O)N[C@@H]1C(=O)N2C(C(=O)O)=C(COC(C)=O)CS[C@H]12)c1csc(N)n1 [Cefot, cefotaxime, reference compound]	K. pneumoniae JIE2709	32 µg/mL
C[C@H]1[C@H](NC(=O)/C(=N\OC(C)(C)C(=O)O)c2csc(N)n2)C(=O)N1S(=O)(=O)O [Azt, aztreonam, reference compound]	K. pneumoniae JIE2709	>128 µg/mL
C[C@@H](O)[C@H]1C(=O)N2C(C(=O)O)=C(S[C@@H]3CN[C@H](C(=O)N(C)C)C3)[C@H](C)[C@H]12 [Mer, meropenem, reference compound]	K. pneumoniae JIE2709	32 µg/mL

What does the record list as MIC of antibiotics for O=C(N[C@H](CO)[C@H](O)c1ccc([N+](=O)[O-])cc1)C(Cl)Cl [Chl, chloramphenicol, reference compound] ?
>32 µg/mL

Another compound: CNC(C)C1CCC(N)C(OC2C(N)CC(N)C(OC3OCC(C)(O)C(NC)C3O)C2O)O1 (stereo not drawn) [Gen, gentamicin, reference compound]
0.5 µg/mL
